# Experiment Notes: self-splicing fitness, log relative to wild type (ln ratio); higher = more splicing; Tetrahymena group I intron in knt gene, E. coli kanamycin selection, DiMSum; sequences stand for … in CUCUCU…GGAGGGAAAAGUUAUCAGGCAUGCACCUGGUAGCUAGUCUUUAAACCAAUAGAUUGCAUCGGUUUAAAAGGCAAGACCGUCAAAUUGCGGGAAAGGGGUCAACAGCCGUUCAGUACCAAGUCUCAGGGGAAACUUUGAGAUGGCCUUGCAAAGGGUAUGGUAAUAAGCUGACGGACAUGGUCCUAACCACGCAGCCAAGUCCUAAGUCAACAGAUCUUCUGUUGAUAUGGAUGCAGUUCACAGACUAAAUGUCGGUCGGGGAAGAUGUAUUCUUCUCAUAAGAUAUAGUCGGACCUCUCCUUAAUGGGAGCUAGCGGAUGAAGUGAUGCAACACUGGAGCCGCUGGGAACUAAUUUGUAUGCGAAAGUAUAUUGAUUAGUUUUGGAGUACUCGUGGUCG;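 further: selection with 25 µg/mL kanamycin versus none on LB agar overnight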
# Experimental Setup: 30 °C
Returns satisfied if the recorded self-splicing fitness (ln) is greater than or equal to -2, and not satisfied otherwise.

In: Quick check, self-splicing fitness (ln) >= -2? AUAGAGCAAUAUUACGACUC
Out: satisfied

In: How about UGGGAGCAAUAUUACGGUUA ?
Out: not satisfied

====

Listed here are sequences together with their documented self-splicing fitness (ln).
# Experiment Notes: self-splicing fitness, log relative to wild type (ln ratio); higher = more splicing; Tetrahymena group I intron in knt gene, E. coli kanamycin selection, DiMSum; sequences stand for … in CUCUCU…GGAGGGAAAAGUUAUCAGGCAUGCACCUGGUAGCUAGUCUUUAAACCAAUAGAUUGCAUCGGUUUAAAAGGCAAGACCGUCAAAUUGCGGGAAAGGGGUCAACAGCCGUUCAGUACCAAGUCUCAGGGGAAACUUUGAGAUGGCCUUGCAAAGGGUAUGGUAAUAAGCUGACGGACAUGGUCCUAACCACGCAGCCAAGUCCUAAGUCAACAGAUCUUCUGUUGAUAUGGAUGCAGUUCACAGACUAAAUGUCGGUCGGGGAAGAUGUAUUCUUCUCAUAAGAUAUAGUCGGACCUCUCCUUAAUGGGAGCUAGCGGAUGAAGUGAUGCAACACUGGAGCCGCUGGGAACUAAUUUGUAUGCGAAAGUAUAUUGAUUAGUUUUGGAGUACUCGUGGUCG
# Experimental Setup: 37 °C

Some sequences with known self-splicing fitness (ln) results, for comparison:
ACCGAGCAAUAUUACGGUGA: -1.48
CAGGAGCAAUAUUACGUCAA: -3.44

In: What value of measured self-splicing fitness (ln) is listed for GUAUAGCAAUAUUACGUGAU ?
Out: -1.71

In: How about CGAUAGCAAUAUUACGGAUU ?
Out: -2.61

In: How about CGGAAGCAAUAUUACGUAUA ?
Out: -2.63

In: How about AGCGAGCAAUAUUACGAUUU ?
Out: -0.548

In: How about GUAAAGCAAUAUUACGGCCA ?
Out: 0.704

In: How about GAGAAGCAAUAUUACGUUUA ?
Out: -0.99

====

# Experiment Notes: self-splicing fitness, log relative to wild type (ln ratio); higher = more splicing; Tetrahymena group I intron in knt gene, E. coli kanamycin selection, DiMSum; sequences stand for … in CUCUCU…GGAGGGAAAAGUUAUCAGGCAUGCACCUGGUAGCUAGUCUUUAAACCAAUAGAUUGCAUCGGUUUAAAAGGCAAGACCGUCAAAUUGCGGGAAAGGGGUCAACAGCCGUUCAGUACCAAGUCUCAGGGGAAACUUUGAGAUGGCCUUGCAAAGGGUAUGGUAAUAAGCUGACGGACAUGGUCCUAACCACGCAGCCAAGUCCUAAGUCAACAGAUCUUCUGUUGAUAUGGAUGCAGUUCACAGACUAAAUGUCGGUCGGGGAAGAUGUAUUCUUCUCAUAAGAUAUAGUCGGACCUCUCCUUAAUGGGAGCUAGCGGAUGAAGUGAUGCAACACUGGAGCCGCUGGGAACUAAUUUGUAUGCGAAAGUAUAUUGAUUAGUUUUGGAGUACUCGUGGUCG
# Experimental Setup: 30 °C
Returns TRUE if the recorded self-splicing fitness (ln) is greater than or equal to -2, and FALSE otherwise.

The following sequences have reported results that may help.
CCACAGCAAUAUUACGAAUC: FALSE
CGGCAGCAAUAUUACGCGCG: FALSE
UAUAAGCAAUAUUACGCUCC: TRUE
CGUGAGCAAUAUUACGUUUA: FALSE
AUCAAGCAAUAUUACGGGAG: TRUE
CGAUAGCAAUAUUACGACCG: TRUE
CGAUAGCAAUAUUACGGACU: TRUE
AGUAAGCAAUAUUACGCAUU: FALSE
GAGAAGCAAUAUUACGGCGU: TRUE
CAUAAGCAAUAUUACGAAAG: TRUE

In: Quick check, self-splicing fitness (ln) >= -2? AGUCAGCAAUAUUACGAGCC
Out: TRUE

In: How about GUGAAGCAAUAUUACGGGGC ?
Out: FALSE

In: How about UCAUAGCAAUAUUACGAUAA ?
Out: TRUE

In: How about CUGUAGCAAUAUUACGUCUU ?
Out: FALSE

In: How about UCGCAGCAAUAUUACGUUCA ?
Out: TRUE

In: How about GGUUAGCAAUAUUACGUACA ?
Out: TRUE

In: How about CCCGAGCAAUAUUACGGACC ?
Out: FALSE

In: How about UGUUAGCAAUAUUACGAGCG ?
Out: TRUE

In: How about UGAGAGCAAUAUUACGGACG ?
Out: TRUE

In: How about CAGCAGCAAUAUUACGCCCC ?
Out: TRUE

In: How about AUGGAGCAAUAUUACGCGGG ?
Out: FALSE

In: How about UCUAAGCAAUAUUACGCAGG ?
Out: FALSE
